procedure.details: method code SF-CR+AS, from DOI: 10.1016/0003-9861(68)90547-x, PMID: 5677592
recorded.endpoint: logP

Solved cases (3 shown):
> print(dat)
                                item.smiles  numeric.value
1  CC(C)(C)c1cccc(O[C@@H]2O[C@H](CO)[C@@H](O)[C@H](O)[C@H]2O)c1           1.01
2  COc1ccccc1O[C@@H]1O[C@H](CO)[C@@H](O)[C@H](O)[C@H]1O          -1.04
3  OC[C@H]1O[C@@H](Oc2ccc3ccccc3c2)[C@H](O)[C@@H](O)[C@@H]1O           0.76

I: CC(C)(C)c1ccc(O[C@@H]2O[C@H](CO)[C@@H](O)[C@H](O)[C@H]2O)cc1
II: COc1cccc(O[C@@H]2O[C@H](CO)[C@@H](O)[C@H](O)[C@H]2O)c1
III: Nc1ccccc1O[C@@H]1O[C@H](CO)[C@@H](O)[C@H](O)[C@H]1O
IV: Cc1cccc(O[C@@H]2O[C@H](CO)[C@@H](O)[C@H](O)[C@H]2O)c1
Ascending sort, logP. Would you mind listing the labels in the order requested?
III, II, IV, I
(III: -1.23, II: -0.52, IV: -0.2, I: 1.18)

P: OC[C@H]1O[C@@H](Oc2ccc(O)cc2)[C@H](O)[C@@H](O)[C@@H]1O
Q: CC(C)c1cccc(O[C@@H]2O[C@H](CO)[C@H](O)[C@H](O)[C@H]2O)c1
Smaller logP value, P vs Q ? Answer by stating the label of the chosen item.
P
(P: -1.35, Q: 0.65)
